# Tested on: NFAT
# Assay Procedure: NFAT activation assay (luciferase reporter, PMA and ionomycin)
# Format: cell-based
# Test Conditions: Homo sapiens; 10 μM compound; Jurkat cells; 15 nM PMA and 0.5 μM ionomycin; 18 hours; read-out: Activity 10 μM (% inhibition of NFAT luciferase luminescence)
inhibition at 10 µM values for the compounds below.
Reported Metric: inhibition at 10 µM

> print(dat)
                                    compound      reported.metric  observed.measurement
 1  O=C(Nc1ccncc1F)c1nn(CC2CC2)c2ccccc12 [Example 23]  inhibition at 10 µM                 > 75%
 2  Cc1cnccc1C(=O)Nc1ccn(CC2CC2)n1 [Example 30]  inhibition at 10 µM                 < 25%
 3  Fc1cnccc1NCc1cn(CC2CC2)c2ccccc12 [Example 15]  inhibition at 10 µM             26 to 50%
 4  O=C(Nc1c(F)cncc1F)c1cn(CC2CCC2)c2ccccc12 [Example 7]  inhibition at 10 µM             51 to 75%
 5  O=C(Nc1ccncc1F)c1cn(CC2CC2)c2ccncc12 [Example 17]  inhibition at 10 µM                 < 25%
 6  O=C(Nc1c(F)cncc1F)c1cn(CC2CC2)c2ccccc12 [Example 3]  inhibition at 10 µM             51 to 75%
 7  O=C(Nc1ccncc1F)c1nn(CC2CC2)c2ccc(Br)cc12 [Example 36]  inhibition at 10 µM             51 to 75%
 8  O=C(Nc1ccncc1F)c1cn(CC2CC2)c2ccccc12 [Example 13]  inhibition at 10 µM                 > 75%
 9  O=C(Nc1ccncc1F)c1nn(CC2CC2)c2c(F)cccc12 [Example 39]  inhibition at 10 µM             51 to 75%
10  O=C(Nc1c(F)cccc1F)c1cn(CC2CC2)c2ccccc12 [Example 1]  inhibition at 10 µM             51 to 75%
11  O=C(Nc1ccncc1F)c1nn(CC2CC2)c2cc(Cl)ccc12 [Example 35]  inhibition at 10 µM             51 to 75%
